// provenance: patent US12180187B2

Test system: LOLRI
assayText: Pre-emergence action against LOLRI, 1280 g/ha
Assay type: in vivo, Lolium rigidum
testConditions: visual scoring after about 3 weeks vs untreated controls, 100% = plants have died, 0% = like control plants
measuredAttribute: Pre-emergence action against LOLRI (%)
Numbers only, in %.

O=C(O)C1CCN(C(=O)COc2nn(-c3ccccc3F)c(-c3cncc(F)c3)c2Br)CC1: 90
O=C(O)C1CCCN1C(=O)COc1nn(-c2ccccc2F)c(-c2ccc(F)nc2)c1Br (centres unmarked): 100
CCOC(=O)COc1nn(-c2ccccc2F)c(-c2ccc(F)nc2)c1C1CC1: 100
O=C(O)COc1nn(-c2ccccc2F)c(-c2ccc(F)nc2)c1C(F)(F)F: 100
COCCOC(=O)COc1nn(-c2ccccc2F)c(-c2ccc(F)nc2)c1Br: 100

Look at each compound and report its Pre-emergence action against LOLRI.
1. O=C(O)COc1nn(-c2ccc(F)cc2F)c(-c2ccc(F)nc2)c1Br
2. CCOC(=O)COc1nn(-c2ccccc2C)c(-c2ccc(F)nc2)c1C(F)(F)F
3. COC(=O)[C@@H](C)Oc1nn(-c2cc(F)ccc2F)c(-c2cncc(F)c2)c1Br
4. O=C(O)C1CCN(C(=O)COc2nn(-c3ccccc3F)c(-c3cncc(F)c3)c2Br)C1 (centres unmarked)
5. O=C(COc1nn(-c2ccccc2F)c(-c2ccc(F)nc2)c1Br)O[C@H]1CCOC1=O
6. CCOC(=O)COc1nn(-c2ccccc2F)c(-c2ccc(F)cn2)c1Br
7. COC(=O)[C@@H](C)Oc1nn(-c2ccccc2F)c(-c2cnc(F)c(F)c2)c1Br
8. COC(=O)C(C)Oc1nn(-c2ccccc2)c(-c2ccnc(F)c2)c1Cl (centres unmarked)

Result ::
[100, 100, 100, 90, 100, 100, 100, 100]

Look at each compound and report its Pre-emergence action against LOLRI.
1. COC(=O)CNC(=O)COc1nn(-c2ccccc2F)c(-c2ccc(F)cn2)c1Br
2. O=C(COc1nn(-c2ccccc2F)c(-c2ccc(F)nc2)c1Br)OCCCl
3. COC(=O)COc1nn(-c2cc(F)ccc2F)c(-c2ccnc(F)c2)c1Br
4. COC(=O)COc1nn(-c2cc(F)ccc2F)c(-c2ccc(F)nc2)c1C#N
5. C=CCNC(=O)COc1nn(-c2ccccc2F)c(-c2cncnc2)c1Br

Result ::
100
100
100
100
100

Look at each compound and report its Pre-emergence action against LOLRI.
1. O=C(O)COc1nn(-c2ccc(F)cc2)c(-c2ccc(F)nc2)c1C(F)(F)F
2. CCOC(=O)COc1nn(-c2ccccc2F)c(-c2ccc(F)nc2)c1C(F)(F)F
3. COC(=O)COc1nn(-c2ccccc2F)c(-c2ccc(F)nc2)c1SC

Result ::
[100, 100, 90]

----------
System: DIGSA
assayText: Pre-emergence action against DIGSA, 1280 g/ha
Format: in vivo, Digitaria sanguinalis
testConditions: visual scoring after about 3 weeks vs untreated controls, 100% = plants have died, 0% = like control plants
Provide the recorded Pre-emergence action against DIGSA for the entries that follow.
One number for each entry, in %.

Completed entries (count: 6):
COC(=O)CNC(=O)COc1nn(-c2ccccc2F)c(-c2ccc(F)nc2)c1C(F)(F)F [Example X-007]: 100
CC(Oc1nn(-c2ccccc2F)c(-c2ccc(F)nc2)c1C(F)(F)F)C(=O)O (stereo not drawn) [VII-106]: 100
O=C(COc1nn(-c2ccccc2F)c(-c2ccc(F)nc2)c1Br)N1CCSC1=O [Example X-011]: 100
O=C(O)C1CCCN(C(=O)COc2nn(-c3ccccc3F)c(-c3cncc(F)c3)c2Br)C1 (stereo not drawn) [Example X-033]: 90
COC(=O)COc1nn(-c2c(F)cccc2F)c(-c2ccc(F)nc2)c1C#N [VII-061]: 100
COC(=O)COc1nn(-c2cc(F)ccc2F)c(-c2ccc(F)nc2)c1Br [VII-089]: 100

Look at each compound and report its Pre-emergence action against DIGSA.
1. O=C(COc1nn(-c2ccc(F)cc2F)c(-c2ccc(F)nc2)c1Br)NO [Example X-028]
2. COC(=O)CNC(=O)COc1nn(-c2ccccc2F)c(-c2ccc(F)cn2)c1Br [II-013]
3. C[C@@H](Oc1nn(-c2ccccc2F)c(-c2cncnc2)c1Cl)C(=O)O [VI-018]
4. COC(=O)C(C)Oc1nn(-c2ccccc2)c(-c2ccc(C)nc2)c1Cl (stereo not drawn) [VII-013]
5. CCOC(=O)C(C)Oc1nn(-c2ccccc2F)c(-c2ccc(F)nc2)c1Br (stereo not drawn) [VII-019]

Result ::
1: 100; 2: 100; 3: 100; 4: 90; 5: 100

----------
Tested on: VIOTR
assayText: Pre-emergence action at 320 g/ha against VIOTR
Format: in vivo, Viola tricolor
testConditions: dosage 320 g/ha
measuredAttribute: Pre-emergence action against VIOTR in % (%)
One number for each entry, in %.

Completed entries (count: 10):
O=C(COc1nn(-c2ccccc2F)c(-c2ccc(F)nc2)c1Br)O[C@H]1CCOC1=O: 100
CC(C)OC(=O)COc1nn(-c2ccccc2F)c(-c2ccc(F)nc2)c1Br: 100
O=C(O)CNC(=O)COc1nn(-c2ccccc2F)c(-c2ccc(F)nc2)c1Br: 100
C[C@@H](Oc1nn(-c2ccccc2F)c(-c2cncnc2)c1Cl)C(=O)O: 90
CCOC(=O)COc1nn(-c2ccccc2C)c(-c2ccc(F)nc2)c1C(F)(F)F: 90
C[C@@H](Oc1nn(-c2ccccc2)c(-c2cccnc2)c1Cl)C(=O)O: 100
CCOC(=O)COc1nn(-c2ccccc2F)c(-c2cncc(F)c2)c1Br: 100
COC(=O)CNC(=O)C(F)Oc1nn(-c2ccccc2F)c(-c2ccc(F)nc2)c1Br (stereo not drawn): 100
CCOC(=O)C(C)Oc1nn(-c2ccccc2F)c(-c2ccc(F)nc2)c1I (stereo not drawn): 100
CCOC(=O)CN(C)S(=O)(=O)NC(=O)COc1nn(-c2ccccc2F)c(-c2ccc(F)nc2)c1Br: 90

Look at each molecule and report its Pre-emergence action against VIOTR in %.
1. N#CCCOC(=O)COc1nn(-c2ccccc2F)c(-c2ccc(F)nc2)c1Br [VII-104]
2. COC(=O)[C@@H](C)Oc1nn(-c2cc(F)ccc2F)c(-c2ccc(F)nc2)c1Br

Result ::
1: 100; 2: 100

Look at each molecule and report its Pre-emergence action against VIOTR in %.
1. N#CCCOC(=O)COc1nn(-c2ccccc2F)c(-c2ccc(F)nc2)c1Br [VII-110]
2. O=C(O)C(F)Oc1nn(-c2ccccc2F)c(-c2ccc(F)nc2)c1Br (stereo not drawn)
3. O=C(O)COc1nn(-c2ccccc2F)c(-c2ccc(F)nc2)c1I
4. COC(=O)C(C)Oc1nn(-c2ccccc2)c(-c2ccc(F)nc2)c1Br (stereo not drawn) [VII-026]
5. CN(C)S(=O)(=O)NC(=O)COc1nn(-c2ccccc2F)c(-c2ccc(F)nc2)c1Br

Result ::
100
100
100
100
100

Query :: Which Pre-emergence action against VIOTR in % is reported for this molecule? CC(Oc1nn(-c2ccccc2F)c(-c2ccc(F)nc2)c1I)C(=O)O (stereo not drawn)
Result :: 100

----------
Provide the recorded Pre-emergence action against ECHGC in % for the entries that follow.
Tested on: ECHGC
assayText: Pre-emergence action at 320 g/ha against ECHGC
Assay type: in vivo, Echinochloa crus-galli
testConditions: visual scoring after about 3 weeks vs untreated controls

Completed entries (count: 8):
O=C(COc1nn(-c2ccccc2F)c(-c2ccc(F)nc2)c1Br)OCCCl: 100%
COC(=O)COc1nn(-c2ccccc2F)c(-c2cncc(F)c2)c1Br: 90%
COC(=O)C(C)Oc1nn(-c2ccccc2)c(-c2ccc(F)nc2)c1Br (stereo not drawn): 80%
O=C(COc1nn(-c2ccccc2F)c(-c2ccnc(F)c2)c1Br)OCC1CCOC1 (stereo not drawn): 90%
N#CCCOC(=O)COc1nn(-c2ccccc2F)c(-c2ccc(F)nc2)c1Br [VII-104]: 100%
CCOC(=O)COc1nn(-c2ccccc2F)c(-c2ccc(F)nc2)c1I: 90%
CCOC(=O)[C@@H](C)Oc1nn(-c2ccccc2F)c(-c2cncc(F)c2)c1Br: 90%
C=CCNC(=O)COc1nn(-c2ccccc2F)c(-c2ccc(F)nc2)c1Br: 100%

Query :: Which Pre-emergence action against ECHGC in % is reported for this compound? `CSCCOC(=O)COc1nn(-c2ccccc2F)c(-c2ccc(F)nc2)c1Br`
Result :: 100%

----------
System: KCHSC
assayText: Post-emergence action against KCHSC, 1.28 kg/ha
Type: in vivo, Bassia scoparia
testConditions: dosage 1280 g/ha, visual rating about 3 weeks after treatment vs untreated controls (100% = plants died)
measuredAttribute: Post-emergence action against KCHSC (%)
Answers are plain numbers, in %.

Completed entries (count: 3):
CCOC(=O)C(C)Oc1nn(-c2ccccc2F)c(-c2ccc(F)nc2)c1Br (centres unmarked) [VII-019]: 90
CC(Oc1nn(-c2ccccc2F)c(-c2ccc(F)nc2)c1C(F)(F)F)C(=O)O (centres unmarked) [VII-106]: 100
CONC(=O)COc1nn(-c2ccc(F)cc2F)c(-c2ccc(F)cn2)c1Br [II-004]: 90

Look at each compound and report its Post-emergence action against KCHSC.
1. COC(=O)[C@@H](C)Oc1nn(-c2ccccc2)c(-c2cccnc2)c1Br [VII-008]
2. N#CCCNC(=O)COc1nn(-c2ccccc2F)c(-c2ccc(F)nc2)c1Br [Example X-032]

Result ::
[90, 90]
